Known inhibition of a selection of molecules
# target-of-assay: M-phase inducer phosphatase 2 (Homo sapiens) (UniProt P30305)
# Sequence (P30305 whole entry, looked up, the tested form may be a part): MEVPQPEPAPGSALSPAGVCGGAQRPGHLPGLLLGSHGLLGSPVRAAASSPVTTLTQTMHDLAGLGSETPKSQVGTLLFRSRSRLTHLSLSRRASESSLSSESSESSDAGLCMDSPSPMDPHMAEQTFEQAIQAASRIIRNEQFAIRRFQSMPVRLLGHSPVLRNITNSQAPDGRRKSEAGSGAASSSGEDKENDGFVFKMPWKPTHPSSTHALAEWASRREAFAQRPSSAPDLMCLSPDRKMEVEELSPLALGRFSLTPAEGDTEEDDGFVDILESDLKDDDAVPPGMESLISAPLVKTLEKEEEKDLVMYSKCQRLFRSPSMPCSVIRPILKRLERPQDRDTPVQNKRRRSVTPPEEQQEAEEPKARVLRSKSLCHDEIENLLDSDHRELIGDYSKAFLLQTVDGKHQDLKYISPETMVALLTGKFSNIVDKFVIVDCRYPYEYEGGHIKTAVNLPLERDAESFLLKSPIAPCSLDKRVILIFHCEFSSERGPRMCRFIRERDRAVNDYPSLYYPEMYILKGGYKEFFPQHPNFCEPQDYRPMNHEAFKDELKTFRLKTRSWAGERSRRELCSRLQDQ
# assay-comment: inhibitors of Cdc25B phosphatase catalytic domain, primary screen, biochemical, OMFP fluorescence (AID 368)
# conditions: recombinant Cdc25B, OMFP fluorescence Ex485/Em525; active compounds read high;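 compounds tested at 10 µM final in the well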
The whole screen tested about 65,000 compounds, of which about 85 (0.1%) were called active. The list comes from a sample in which actives are over-represented; it also holds close analogues and randomly drawn compounds.

Illustrative cases are given below, each with its answer.
stdin: Look up and state reported inhibition for Cc1ccsc1C(C(=O)NC1CCCCC1)N(C(=O)Cc1cccs1)C1CC1 (stereo not given)
stdout: 4.04% (inactive)

stdin: Identify the reported inhibition for the following entry. CCn1cc(C(=O)NCC2COc3ccccc3O2)c2cc(OC)c(OC)cc2c1=O (stereo not given)
stdout: -8.97% (inactive)

stdin: State, in one line, measured inhibition of CCCOP(=O)(c1ccc(N(C)C)cc1)C(O)c1cc(OC)c(OC)c(OC)c1 (stereo not given)
stdout: -0.929% (inactive)

stdin: Give me measured inhibition, please, for this molecule: CC1(N2CCOCC2)CC2(O)C(=[N+]1[O-])CCc1nonc12 (stereo not given)
stdout: -12.9% (inactive)

Okay, now this molecule:
stdin: Supply measured inhibition of COc1cc(-c2noc(C3CCCN(S(=O)(=O)c4cccc(Cl)c4)C3)n2)cc(OC)c1OC (stereo not given) in your reply.
stdout: 3.35% (inactive)
